Hey, just so you know, these numbers are from paper PMC11944037.

Procedure Summary: Pharmacokinetics of absorbed components of IPE in plasma
Format: in vivo, SD rats
Experimental Conditions: male, SD, rat, plasma, po, 13.5 g/kg, WCM + IPE group; component of orally given IPE; n = 6
Reported half-life values for the following compounds.
Report the value in h with no unit label.

{"columns": ["Smiles Data", "Unit String", "half-life"],
 "data": [
  ["O=C(O)c1ccc(O)c(O)c1", "h", 1.46]
]}

Using the record for `COc1cc(/C=C/C(=O)O)ccc1O` , state its measured half-life.
1.02

Using the record for `O=C(O)/C=C/c1ccc(O)c(O)c1` , state its measured half-life.
2.82
